Source: paper PMC3481545

test: bis-ANS fluorescence titration of receptor ECDs; type: binding; conditions: value in parenthesis
endpoint name: Relative K′ of bis-ANS (Hill Eq.), normalized to wild-type
Would you mind answering with just the numeric figure?

Summary for this molecule, BMPR-II Wild type: human recombinant BMPR-II receptor extracellular domain (ECD), wild type, expressed in E. coli (protein, left off: TRX, N-terminal, cleaved | His6, C-terminal, state not stated) ASQNQERLCAFKDPYQQDLGIGESRISHENGTILCSKGSTCYGLWEKSKGDINLVKQGCWSHIGDPQECHYEECVVTTTPPSIQNGTYRFCCCSTDLCNVNFTENFPPPDTTPLSPPHSFNRDET : Relative K′ of bis-ANS (Hill Eq.), normalized to wild-type is 1.0
